Target: Carbonic anhydrase 2 (Homo sapiens)
Assay readout: Ki (µM)
Answer format: numeric, µM implied, no suffix.

Please review the following examples before continuing.
Molecule	Tested target	Ki, µM
CC(C)c1cccc(C(C)C)c1O	Carbonic anhydrase 2 (Homo sapiens)	19.5
COc1ccccc1O	Carbonic anhydrase 2 (Homo sapiens)	2.94
Cc1cccc(C)c1O	Carbonic anhydrase 2 (Homo sapiens)	113

Request: Param readout= Ki; system= Carbonic anhydrase 2 (Homo sapiens); entry= Cc1cc(C(C)(C)C)c(O)c(C(C)(C)C)c1 [BUTYLATED HYDROXYTOLUENE] ; returns value.
Result: 0.63

###

As a worked illustration, we turn to Ki data collected for Carbonic anhydrase 1 (Homo sapiens, UniProt P00915).
Answer format: numeric, µM implied, no suffix.

Request: Param readout= Ki; system= Carbonic anhydrase 1 (Homo sapiens, UniProt P00915); entry= CC(C)(C)c1cc(-c2cc(C(C)(C)C)c(O)c(C(C)(C)C)c2)cc(C(C)(C)C)c1O ; returns value.
Result: 37.5

Request: Param readout= Ki; system= Carbonic anhydrase 1 (Homo sapiens, UniProt P00915); entry= Cc1cc(-c2cc(C)c(O)c(C)c2)cc(C)c1O ; returns value.
Result: 92.8

Request: Param readout= Ki; system= Carbonic anhydrase 1 (Homo sapiens, UniProt P00915); entry= COc1ccccc1O [GUAIACOL] ; returns value.
Result: 60.2

Request: Param readout= Ki; system= Carbonic anhydrase 1 (Homo sapiens, UniProt P00915); entry= Cc1cc(C(C)(C)C)c(O)c(C(C)(C)C)c1 [BUTYLATED HYDROXYTOLUENE] ; returns value.
Result: 245

Request: Param readout= Ki; system= Carbonic anhydrase 1 (Homo sapiens, UniProt P00915); entry= Cc1cccc(C)c1O ; returns value.
Result: 198

Request: Param readout= Ki; system= Carbonic anhydrase 1 (Homo sapiens, UniProt P00915); entry= CC(C)c1cccc(C(C)C)c1O [PROPOFOL] ; returns value.
Result: 98.9

Request: Param readout= Ki; system= Carbonic anhydrase 1 (Homo sapiens, UniProt P00915); entry= COc1c(O)cccc1C=O ; returns value.
Result: 55.6

Source of measurements: ChEMBL document CHEMBL1153923
